Values compiled from paper PMC8541144.

test: LogD determination: partition between 1-octanol and phosphate buffer pH 7.4
Property: logD; scope: individual compounds
Just the number, please, no unit after it.

Known logD results, listed for orientation:
>>> endpoint_value("CCCC[C@H](NC(=O)CCOCCOCCOCCOCCNC(=O)CCCN1C(=O)CC(SC[C@H](NC(=O)[C@H](CCCCNS(=O)(=O)c2cccc3c(N(C)C)cccc23)NC(=O)CC[C@H](C(=O)O)N2CCN(CC(=O)O)CCN(CC(=O)O)CC2)C(N)=O)C1=O)C(=O)N[C@H]1CC(=O)NCCCC[C@@H](C(N)=O)NC(=O)[C@H](Cc2c[nH]c3ccccc23)NC(=O)[C@H](CCCNC(=N)N)NC(=O)[C@@H](Cc2ccccc2)NC(=O)[C@H](Cc2c[nH]cn2)NC1=O (stereo partly drawn)")
-1.66
>>> endpoint_value("N=C(N)NCCC[C@@H]1NC(=O)[C@H](CCCCNC(=O)CCOCCOCCOCCOCCNC(=O)CCCN2C(=O)CC(SC[C@H](NC(=O)CNC(=O)CC[C@H](C(=O)O)N3CCN(CC(=O)O)CCN(CC(=O)O)CC3)C(N)=O)C2=O)NC(=O)[C@@H](Cc2ccccc2)NC(=O)[C@H](CC(=O)O)NC(=O)CNC1=O (stereo partly drawn) [10 c, c(RGDfK)-NODA-GA]")
-4.06

Next, consider the following compound.
Q) Name the recorded logD for CSCC[C@H](NC(=O)[C@H](CC(C)C)NC(=O)[C@H](Cc1c[nH]cn1)NC(=O)CNC(=O)[C@@H](NC(=O)[C@H](C)NC(=O)[C@H](Cc1c[nH]c2ccccc12)NC(=O)[C@H](CCC(N)=O)NC(=O)CCOCCOCCOCCOCCNC(=O)CCCN1C(=O)CC(SC[C@H](NC(=O)CNC(=O)CC[C@H](C(=O)O)N2CCN(CC(=O)O)CCN(CC(=O)O)CC2)C(N)=O)C1=O)C(C)C)C(N)=O (stereo partly drawn) [10 a, BBN7-14-NODA-GA] .
A) -3.78

---

Overview of reported logD across a group of molecules:
Experiment: LogD determination: partition between 1-octanol and phosphate buffer pH 7.4
Method: In the following, the lipophilicity of the labeled conjugates was investigated to get a first idea of the potential excretion pathway of the agents during an in vivo application. The logD values were determined by partition experiments between n-octanol and aqueous solution at pH 7.4. The mixtures were intensively shaken for 5 min on a vibrating plate. After subsequent centrifugation at 13,000 rpm for 5 min, 125 µL were taken from each phase and measured in a γ-counter. […]

Known results for molecules:
>>> endpoint_value("CSCC[C@H](NC(=O)[C@H](CC(C)C)NC(=O)[C@H](Cc1c[nH]cn1)NC(=O)CNC(=O)[C@@H](NC(=O)[C@H](C)NC(=O)[C@H](Cc1c[nH]c2ccccc12)NC(=O)[C@H](CCC(N)=O)NC(=O)CCOCCOCCOCCOCCNC(=O)CCCN1C(=O)CC(SC[C@H](NC(=O)[C@H](CCCC[n+]2c(C)cc(/C=C/c3ccc(N(C)C)cc3)cc2C)NC(=O)CC[C@H](C(=O)O)N2CCN(CC(=O)O)CCN(CC(=O)O)CC2)C(N)=O)C1=O)C(C)C)C(N)=O (stereo partly drawn)")
-2.38
>>> endpoint_value("Cc1cc(/C=C/c2ccc(N(C)C)cc2)cc(C)[n+]1CCCC[C@H](NC(=O)CC[C@H](C(=O)O)N1CCN(CC(=O)O)CCN(CC(=O)O)CC1)C(=O)N[C@@H](CSC1CC(=O)N(CCCC(=O)NCCOCCOCCOCCOCCC(=O)NCCCC[C@@H]2NC(=O)[C@@H](Cc3ccccc3)NC(=O)[C@H](CC(=O)O)NC(=O)CNC(=O)[C@H](CCCNC(=N)N)NC2=O)C1=O)C(N)=O (stereo partly drawn) [7 c, c(RGDfK)-pyrylium-NODA-GA]")
-2.51
>>> endpoint_value("CSCC[C@H](NC(=O)[C@H](CC(C)C)NC(=O)[C@H](Cc1c[nH]cn1)NC(=O)CNC(=O)[C@@H](NC(=O)[C@H](C)NC(=O)[C@H](Cc1c[nH]c2ccccc12)NC(=O)[C@H](CCC(N)=O)NC(=O)CCOCCOCCOCCOCCNC(=O)CCCN1C(=O)CC(SC[C@H](NC(=O)[C@H](CCCCNS(=O)(=O)c2cccc3c(N(C)C)cccc23)NC(=O)CC[C@H](C(=O)O)N2CCN(CC(=O)O)CCN(CC(=O)O)CC2)C(N)=O)C1=O)C(C)C)C(N)=O (stereo partly drawn)")
-1.44
>>> endpoint_value("CN(C)c1cccc2c(S(=O)(=O)NCCCC[C@H](NC(=O)CC[C@H](C(=O)O)N3CCN(CC(=O)O)CCN(CC(=O)O)CC3)C(=O)N[C@@H](CSC3CC(=O)N(CCCC(=O)NCCOCCOCCOCCOCCC(=O)NCCCC[C@@H]4NC(=O)[C@@H](Cc5ccccc5)NC(=O)[C@H](CC(=O)O)NC(=O)CNC(=O)[C@H](CCCNC(=N)N)NC4=O)C3=O)C(N)=O)cccc12 (stereo partly drawn) [8 c, c(RGDfK)-dansyl-NODA-GA]")
-2.17
>>> endpoint_value("CSCC[C@H](NC(=O)[C@H](CC(C)C)NC(=O)[C@H](Cc1c[nH]cn1)NC(=O)CNC(=O)[C@@H](NC(=O)[C@H](C)NC(=O)[C@H](Cc1c[nH]c2ccccc12)NC(=O)[C@H](CCC(N)=O)NC(=O)CCOCCOCCOCCOCCNC(=O)CCCN1C(=O)CC(SC[C@H](NC(=O)CNC(=O)CC[C@H](C(=O)O)N2CCN(CC(=O)O)CCN(CC(=O)O)CC2)C(N)=O)C1=O)C(C)C)C(N)=O (stereo partly drawn) [[^68Ga]Ga-10 a, metal not drawn]")
-3.78

Q) Quick check: logD of CC1(C)C(/C=C/C2=C(c3ccc(C(=O)NCCCC[C@H](NC(=O)CC[C@H](C(=O)O)N4CCN(CC(=O)O)CCN(CC(=O)O)CC4)C(=O)N[C@@H](CSC4CC(=O)N(CCCC(=O)NCCOCCOCCOCCOCCC(=O)NCCCC[C@@H]5NC(=O)[C@@H](Cc6ccccc6)NC(=O)[C@H](CC(=O)O)NC(=O)CNC(=O)[C@H](CCCNC(=N)N)NC5=O)C4=O)C(N)=O)cc3)C(=C/C=C3/N(CCCCS(=O)(=O)[O-])c4ccc5ccccc5c4C3(C)C)/CCC2)=[N+](CCCCS(=O)(=O)O)c2ccc3ccccc3c21 (stereo partly drawn) [9 c, c(RGDfK)-cyanine-NODA-GA] ?
A) -1.97
